Cited source: patent US20240217967A1

# TARGET_ENTITY: DDR1 (Homo sapiens, UniProt Q08345)
# Sequence (Q08345 19-913): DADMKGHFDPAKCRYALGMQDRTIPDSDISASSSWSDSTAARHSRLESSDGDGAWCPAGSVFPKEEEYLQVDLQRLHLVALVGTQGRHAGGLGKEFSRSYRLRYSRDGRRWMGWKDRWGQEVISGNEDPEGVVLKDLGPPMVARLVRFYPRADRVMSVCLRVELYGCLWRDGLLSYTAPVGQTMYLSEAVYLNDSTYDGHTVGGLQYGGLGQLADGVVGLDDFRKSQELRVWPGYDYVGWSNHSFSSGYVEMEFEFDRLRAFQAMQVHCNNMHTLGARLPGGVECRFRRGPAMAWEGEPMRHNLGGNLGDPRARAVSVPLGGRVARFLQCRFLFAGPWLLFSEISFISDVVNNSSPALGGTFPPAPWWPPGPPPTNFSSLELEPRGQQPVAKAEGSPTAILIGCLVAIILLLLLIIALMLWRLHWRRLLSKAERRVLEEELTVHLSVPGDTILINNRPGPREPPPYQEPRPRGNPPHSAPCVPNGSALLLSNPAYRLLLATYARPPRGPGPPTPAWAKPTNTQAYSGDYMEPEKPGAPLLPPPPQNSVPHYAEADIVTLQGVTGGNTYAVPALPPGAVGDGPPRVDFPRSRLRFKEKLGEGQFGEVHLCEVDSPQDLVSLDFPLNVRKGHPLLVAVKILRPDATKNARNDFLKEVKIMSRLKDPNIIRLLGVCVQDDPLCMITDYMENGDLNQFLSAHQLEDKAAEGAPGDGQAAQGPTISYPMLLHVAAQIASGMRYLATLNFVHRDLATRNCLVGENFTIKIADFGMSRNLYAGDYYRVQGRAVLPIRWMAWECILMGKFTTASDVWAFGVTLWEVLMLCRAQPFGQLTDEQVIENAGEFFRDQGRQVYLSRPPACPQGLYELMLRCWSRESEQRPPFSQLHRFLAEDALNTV
# METHOD_DESCRIPTION: DDR1 LanthaScreen Europium Kinase Binding assay
# ASSAY_SETUP: binding affinity; IC50 converted in Ki using Cheng-Prusoff; read-out: Ki DDR1
pKi: −log10 of the molar value.

[
  {
    "COMPOUND": "Cc1n[nH]c2ncc(CN3CCc4ccc(C(=O)Nc5cc(C(=O)NCCN(C)C)cc(C(F)(F)F)c5)cc43)cc12 [Example 73]",
    "pKi": "> 7.60"
  },
  {
    "COMPOUND": "Cc1n[nH]c2ncc(CN3CCc4ccc(C(=O)Nc5cc(C(=O)N6CCN(C)CC6)cc(C(F)(F)F)c5)cc43)cc12 [Example 74]",
    "pKi": "> 7.60"
  },
  {
    "COMPOUND": "Cc1cn(-c2cc(NC(=O)c3ccc4c(c3)N(Cc3ccc5[nH]ncc5c3)CC4)cc(C(F)(F)F)c2)cn1 [Example 8]",
    "pKi": "7.30 to 7.60"
  },
  {
    "COMPOUND": "CN1CCN(Cc2cc(NC(=O)c3ccc4c(c3)N(Cc3cnc5ccccn35)CC4)cc(C(F)(F)F)c2)CC1 [Example 11]",
    "pKi": "> 7.60"
  },
  {
    "COMPOUND": "CN1CCN(Cc2cc(C(=O)Nc3ccc4c(c3)N(C(=O)c3cnc5ccccn35)CC4)cc(C(F)(F)F)c2)CC1 [Example 16]",
    "pKi": "> 7.60"
  },
  {
    "COMPOUND": "CC1CN(Cc2cnc3[nH]ncc3c2)c2cc(C(=O)Nc3cccc(C(F)(F)F)c3)ccc21 (racemic) [Example 30]",
    "pKi": "> 7.60"
  },
  {
    "COMPOUND": "Cc1n[nH]c2ncc(CN3CCc4ccc(C(=O)Nc5ccc(CN(C)C)c(C(F)(F)F)c5)cc43)cc12 [Example 69]",
    "pKi": "> 7.60"
  }
]

* * *

# TARGET_ENTITY: DDR2 (Homo sapiens, UniProt Q16832)
# Sequence (Q16832 22-855): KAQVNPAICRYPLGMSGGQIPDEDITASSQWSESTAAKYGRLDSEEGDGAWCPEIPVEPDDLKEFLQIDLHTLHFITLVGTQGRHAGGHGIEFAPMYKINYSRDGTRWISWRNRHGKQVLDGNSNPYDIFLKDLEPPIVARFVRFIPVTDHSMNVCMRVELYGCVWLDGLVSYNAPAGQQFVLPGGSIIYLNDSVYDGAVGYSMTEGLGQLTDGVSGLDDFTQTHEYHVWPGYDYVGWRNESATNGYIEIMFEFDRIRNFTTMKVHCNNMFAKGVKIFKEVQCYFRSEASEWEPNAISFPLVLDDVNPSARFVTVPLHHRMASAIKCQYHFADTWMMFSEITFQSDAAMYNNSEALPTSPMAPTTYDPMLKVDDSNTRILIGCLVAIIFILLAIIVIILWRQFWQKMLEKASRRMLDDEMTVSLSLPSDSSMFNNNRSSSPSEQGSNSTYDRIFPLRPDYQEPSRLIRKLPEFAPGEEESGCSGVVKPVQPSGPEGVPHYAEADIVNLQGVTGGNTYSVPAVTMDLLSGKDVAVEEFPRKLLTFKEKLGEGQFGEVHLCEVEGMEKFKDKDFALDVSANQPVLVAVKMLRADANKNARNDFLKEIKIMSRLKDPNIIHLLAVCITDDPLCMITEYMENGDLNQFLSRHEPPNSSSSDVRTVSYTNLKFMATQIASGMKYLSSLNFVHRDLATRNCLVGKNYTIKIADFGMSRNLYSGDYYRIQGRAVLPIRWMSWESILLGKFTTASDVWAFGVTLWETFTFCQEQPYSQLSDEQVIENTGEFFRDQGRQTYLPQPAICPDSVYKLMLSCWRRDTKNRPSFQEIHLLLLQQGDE
# METHOD_DESCRIPTION: DDR2 LanthaScreen Europium Kinase Binding assay
# ASSAY_SETUP: binding affinity; IC50 converted in Ki using Cheng-Prusoff; read-out: Ki DDR2
pKi: −log10 of the molar value.
Attribute: pKi
PARAMETER: pKi

[
  {
    "COMPOUND": "Cc1cn(-c2cc(NC(=O)c3ccc4c(c3)N(Cc3cnc5cnccn35)CC4C)cc(C(F)(F)F)c2)cn1 (racemic) [Example 26]",
    "PARAMETER": "pKi",
    "OBSERVED_RESULT": "> 7.60"
  },
  {
    "COMPOUND": "COc1ccc(NC(=O)c2ccc3c(c2)N(Cc2cnc4cnccn24)CC3)cc1C(F)(F)F",
    "PARAMETER": "pKi",
    "OBSERVED_RESULT": "7.30 to 7.60"
  },
  {
    "COMPOUND": "Cc1cn(-c2cc(NC(=O)c3ccc4c(c3)N(Cc3cnc5[nH]ncc5c3)CC4C)cc(C(F)(F)F)c2)cn1 (stereo not shown)",
    "PARAMETER": "pKi",
    "OBSERVED_RESULT": "7.30 to 7.60"
  },
  {
    "COMPOUND": "CN1CCN(Cc2cc(C(=O)Nc3ccc4c(c3)N(C(=O)c3cnc5ccccn35)CC4)cc(C(F)(F)F)c2)CC1",
    "PARAMETER": "pKi",
    "OBSERVED_RESULT": "> 7.60"
  },
  {
    "COMPOUND": "Cc1n[nH]c2ncc(CN3CCc4ccc(C(=O)Nc5ccc(CN6CCN(C)CC6)c(C(F)(F)F)c5)cc43)cc12",
    "PARAMETER": "pKi",
    "OBSERVED_RESULT": "> 7.60"
  },
  {
    "COMPOUND": "CN1CCN(Cc2ccc(NC(=O)c3ccc4c(c3)N(Cc3cnc5ccnn5c3)CC4)cc2C(F)(F)F)CC1",
    "PARAMETER": "pKi",
    "OBSERVED_RESULT": "> 7.60"
  },
  {
    "COMPOUND": "O=C(Nc1cccc(OC(F)(F)F)c1)c1ccc2c(c1)N(Cc1cnc3ccccn13)CC2",
    "PARAMETER": "pKi",
    "OBSERVED_RESULT": "7.30 to 7.60"
  }
]
